- Experimental protocol: Thermodynamic aqueous solubility of crystalline Forms I and II of Compound 1 (HPLC)
- Format: physicochemical
- Condition details: aqueous solution, pH 1.2, 37 °C, pH 1.2, simulated gastric fluid, thermodynamic from solid, 6 hrs equilibrium, average n=3
Measured attribute: solubility at 6 h

Entry CONC(=O)Nc1ccc(-c2sc3c(c2CN(C)C)c(=O)n(-c2ccc(OC)nn2)c(=O)n3Cc2c(F)cccc2F)cc1 [Form II] ; solubility at 6 h = > 10000 µg/mL

###

- Experimental protocol: Thermodynamic aqueous solubility of crystalline Forms I and II of Compound 1 (HPLC)
- Type: physicochemical
- Condition details: aqueous solution, pH 1.2, 37 °C, pH 1.2, simulated gastric fluid, thermodynamic from solid, 2 hrs equilibrium, average n=3
Measured attribute: solubility at 2 h

The measured solubility at 2 h associated with CONC(=O)Nc1ccc(-c2sc3c(c2CN(C)C)c(=O)n(-c2ccc(OC)nn2)c(=O)n3Cc2c(F)cccc2F)cc1 [Form II] reads > 10000 µg/mL

###

- Experimental protocol: Thermodynamic aqueous solubility of crystalline Forms I and II of Compound 1 (HPLC)
- Format: physicochemical
- Condition details: aqueous solution, pH 1.2, 37 °C, pH 1.2, simulated gastric fluid, thermodynamic from solid, 24 hrs equilibrium, average n=3
Measured attribute: solubility at 24 h

Given item CONC(=O)Nc1ccc(-c2sc3c(c2CN(C)C)c(=O)n(-c2ccc(OC)nn2)c(=O)n3Cc2c(F)cccc2F)cc1 [Form II] , the value recorded as its solubility at 24 h is > 10000 µg/mL
